# Tested on: IGROV1 ovarian
# measurement description: NCI-60 one-dose screen, 48 h
# run parameters: 10 µM unless noted
This is part of a sample that, as a whole, favours compounds with a hit. Of some 83,000 tested, about 20% had one in any assay. Active and inactive are the calls of the source. The calls were made as follows: active = growth percent below 10; inactive = the rest.
Outcomes you can answer with include only these: T = active, F = inactive

The following compounds have reported results that may help.
smiles code: CCCCn1c(-c2ccc(C(=O)O/N=C(\N)c3ccc4c(c3)OCO4)cc2)nc(-c2ccccc2)c1-c1ccccc1
group label: T

smiles code: O=C(Nc1cccc2[nH]c(C(F)(F)F)nc12)c1ccc(-n2cnnn2)cc1
group label: F

smiles code: CCn1c(Cc2ccccc2Nc2c(Cl)cccc2Cl)nnc1SCC(=O)NN1C(=O)/C(=C/c2cc(OC)c(O)c(OC)c2)SC1=S
group label: F

smiles code: Cc1cc(C)nc(SC2=C(Nc3cc(Cl)ccc3O)C(=O)N(Cc3ccccc3)C2=O)n1
group label: F

smiles code: COC(=O)c1ccc2oc(NC(=O)c3ccc(Nc4ccc([N+](=O)[O-])cc4C)c([N+](=O)[O-])c3)nc2c1
group label: F

q: Just curious, what result did "CS(=O)(=O)c1ccc(-n2nc(-c3ccc(Br)cc3)c3ccccc3c2=O)cc1" get here?
a: F

q: Just curious, what result did "CCN1CCN(c2nc(NCCNc3ccnc4cc(Cl)ccc34)c3ccccc3n2)CC1" get here?
a: F

q: Just curious, what result did "COc1ccc(-n2nc(C)c3c(Oc4ccc(NC(=O)Nc5c(Cl)cccc5Cl)cc4)ncnc32)cc1" get here?
a: F
